The values you see were collected from ChEMBL document CHEMBL1275518.

- METHOD DESCRIPTION: Tmax in healthy adult CSF at 150 mg, po administered as single dose by LC/MS analysis
- Format: ADME, organism-based, Cerebrospinal fluid
- EXPERIMENTAL PARAMETERS: human
QUANTITY NAME: Tmax (h)

CCOC(=O)C1=C[C@@H](OC(CC)CC)[C@H](NC(C)=O)[C@@H](N)C1.O=P(O)(O)O [OSELTAMIVIR PHOSPHATE] | 3.5

###

- METHOD DESCRIPTION: Ratio of AUC (0 to last) in healthy adult CSF to AUC (0 to last) in healthy adult plasma at 150 mg, po administered as single dose
- Format: ADME, organism-based
- EXPERIMENTAL PARAMETERS: human
QUANTITY NAME: Kp (%)

CCOC(=O)C1=C[C@@H](OC(CC)CC)[C@H](NC(C)=O)[C@@H](N)C1.O=P(O)(O)O [OSELTAMIVIR PHOSPHATE] | 2.4
